system: AREc32 cells; assay: Cytotoxicity with ImageXpress high-content imaging, MitoOxTox; details: 10% reduction in cell viability; AREc32, 24 h exposure
Cut-off 30 µM on Cytotoxicity ImageExpress IC10: below means 1, at or above means -1.

[
  {
    "compound": "CC1(C)CNC(=NN=C(/C=C/c2ccc(C(F)(F)F)cc2)/C=C/c2ccc(C(F)(F)F)cc2)NC1 [Hydramethylnon]",
    "answer label": 1
  },
  {
    "compound": "COc1cc2c(cc1OC)[C@@H]1C(=O)c3ccc4c(c3O[C@@H]1CO2)C=CC(C)(C)O4",
    "answer label": 1
  },
  {
    "compound": "CCOCCc1ccc(OCCN=c2[nH]cnc(CC)c2Cl)c(C)c1C",
    "answer label": -1
  },
  {
    "compound": "N#CC(C#N)=NNc1cccc(Cl)c1",
    "answer label": 1
  },
  {
    "compound": "COC(=O)N(OC)c1ccccc1COc1ccn(-c2ccc(Cl)cc2)n1",
    "answer label": -1
  },
  {
    "compound": "CO/C=C(/C(=O)OC)c1ccccc1Oc1cc(Oc2ccccc2C#N)ncn1",
    "answer label": -1
  },
  {
    "compound": "CCCCCC[C@H]1C(=O)O[C@H](C)[C@H](NC(=O)c2cccc(NC=O)c2O)C(=O)O[C@@H](C)[C@@H]1OC(=O)CC(C)C [Antimycin A]",
    "answer label": -1
  },
  {
    "compound": "CCc1nn(C)c(C(=O)NCc2ccc(C(C)(C)C)cc2)c1Cl",
    "answer label": -1
  },
  {
    "compound": "CO/N=C(/C1=NOCCO1)c1ccccc1Oc1ncnc(Oc2ccccc2Cl)c1F",
    "answer label": -1
  },
  {
    "compound": "N#CC(C#N)=NNc1ccc(OC(F)(F)F)cc1",
    "answer label": 1
  }
]

====

test system: Nrf2-mediated oxidative stress response pathway (ARE) in AREc32 cells; assay: cells; details: Arec32, 24 h, read-out: Oxidative stress response ECIR1.5 (M)
Collected EC (induction ratio 1.5) values appear next to each entry.

[
  {
    "structure smiles string": "CON=C(C(=O)OC)c1ccccc1CON=C(C)c1cccc(C(F)(F)F)c1",
    "EC (induction ratio 1.5)": "> 0.000123 M"
  },
  {
    "structure smiles string": "N#CC(C#N)=NNc1ccc(OC(F)(F)F)cc1",
    "EC (induction ratio 1.5)": "> 6.32e-05 M"
  },
  {
    "structure smiles string": "O=[N+]([O-])c1ccc(O)c([N+](=O)[O-])c1",
    "EC (induction ratio 1.5)": "0.000156 M"
  },
  {
    "structure smiles string": "COc1ccc2cc3[n+](cc2c1OC)CCc1cc2c(cc1-3)OCO2",
    "EC (induction ratio 1.5)": "> 0.000135 M"
  },
  {
    "structure smiles string": "CCOCCc1ccc(OCCN=c2[nH]cnc(CC)c2Cl)c(C)c1C",
    "EC (induction ratio 1.5)": "> 0.000136 M"
  }
]

====

Collected Cytotoxicity Incucyte IC10 values appear next to each entry.
system: AREc32 cells; test: Cytotoxicity (cell confluency) with IncuCyte S3 live cell imaging, MitoOxTox; details: 10% reduction in cell viability; AREc32, 24 h exposure

[
  {
    "compound": "COc1ccc2cc3[n+](cc2c1OC)CCc1cc2c(cc1-3)OCO2",
    "assayed system": "AREc32 cells",
    "display unit": "µM",
    "prefix operator": "=",
    "Cytotoxicity Incucyte IC10": 63.5
  },
  {
    "compound": "COC(=O)N(OC)c1ccccc1COc1ccn(-c2ccc(Cl)cc2)n1",
    "assayed system": "AREc32 cells",
    "display unit": "µM",
    "prefix operator": "=",
    "Cytotoxicity Incucyte IC10": 82.4
  },
  {
    "compound": "N#CC(C#N)=NNc1ccc(OC(F)(F)F)cc1",
    "assayed system": "AREc32 cells",
    "display unit": "µM",
    "prefix operator": "=",
    "Cytotoxicity Incucyte IC10": 0.824
  },
  {
    "compound": "CO/C=C(/C(=O)OC)c1ccccc1Oc1cc(Oc2ccccc2C#N)ncn1",
    "assayed system": "AREc32 cells",
    "display unit": "µM",
    "prefix operator": ">",
    "Cytotoxicity Incucyte IC10": 105
  },
  {
    "compound": "CCCCCC[C@H]1C(=O)O[C@H](C)[C@H](NC(=O)c2cccc(NC=O)c2O)C(=O)O[C@@H](C)[C@@H]1OC(=O)CC(C)C [Antimycin A]",
    "assayed system": "AREc32 cells",
    "display unit": "µM",
    "prefix operator": "=",
    "Cytotoxicity Incucyte IC10": 35.9
  },
  {
    "compound": "CCCCCc1ccc(O)cc1",
    "assayed system": "AREc32 cells",
    "display unit": "µM",
    "prefix operator": "=",
    "Cytotoxicity Incucyte IC10": 57.1
  },
  {
    "compound": "COc1cc2c(cc1OC)[C@@H]1C(=O)c3ccc4c(c3O[C@@H]1CO2)C=CC(C)(C)O4",
    "assayed system": "AREc32 cells",
    "display unit": "µM",
    "prefix operator": "=",
    "Cytotoxicity Incucyte IC10": 17.7
  },
  {
    "compound": "CO/N=C(/C1=NOCCO1)c1ccccc1Oc1ncnc(Oc2ccccc2Cl)c1F",
    "assayed system": "AREc32 cells",
    "display unit": "µM",
    "prefix operator": "=",
    "Cytotoxicity Incucyte IC10": 52.1
  },
  {
    "compound": "CC(C)(C)c1ccc(CCOc2ncnc3ccccc23)cc1",
    "assayed system": "AREc32 cells",
    "display unit": "µM",
    "prefix operator": "=",
    "Cytotoxicity Incucyte IC10": 100
  },
  {
    "compound": "CCOCCc1ccc(OCCN=c2[nH]cnc(CC)c2Cl)c(C)c1C",
    "assayed system": "AREc32 cells",
    "display unit": "µM",
    "prefix operator": "=",
    "Cytotoxicity Incucyte IC10": 55.3
  },
  {
    "compound": "CC1(C)CNC(=NN=C(/C=C/c2ccc(C(F)(F)F)cc2)/C=C/c2ccc(C(F)(F)F)cc2)NC1 [Hydramethylnon]",
    "assayed system": "AREc32 cells",
    "display unit": "µM",
    "prefix operator": "=",
    "Cytotoxicity Incucyte IC10": 0.878
  },
  {
    "compound": "N#CC(C#N)=NNc1cccc(Cl)c1",
    "assayed system": "AREc32 cells",
    "display unit": "µM",
    "prefix operator": "=",
    "Cytotoxicity Incucyte IC10": 1.28
  },
  {
    "compound": "CO/C=C(/C(=O)OC)c1ccccc1COc1cccc(C(F)(F)F)n1",
    "assayed system": "AREc32 cells",
    "display unit": "µM",
    "prefix operator": "=",
    "Cytotoxicity Incucyte IC10": 77.7
  },
  {
    "compound": "CCc1nn(C)c(C(=O)NCc2ccc(C(C)(C)C)cc2)c1Cl",
    "assayed system": "AREc32 cells",
    "display unit": "µM",
    "prefix operator": "=",
    "Cytotoxicity Incucyte IC10": 157
  },
  {
    "compound": "Cc1nc(C(F)(F)F)c(C(=O)Nc2c(Br)cc(OC(F)(F)F)cc2Br)s1 [Thifluzamide]",
    "assayed system": "AREc32 cells",
    "display unit": "µM",
    "prefix operator": "=",
    "Cytotoxicity Incucyte IC10": 11.3
  }
]
